PROTOCOL: Hemolytic activity in human RBC induction of hemolysis at 128 ug/ml at MIC after 60 mins by spectrophotometric method relative to control
Format: cell-based, Erythrocyte
STUDY CONDITIONS: human red blood cells (erythrocytes), read-out: Activity
Where a SMILES comes first, the peptide text is derived from it. [ ]: non-standard residue; d: D form. The star is where a group is joined. ξ: configuration not given here. Lauroyl = CCCCCCCCCCCC(=O)*; ξDab = NCCC(N)C(=O)O; ξDap = NCC(N)C(=O)O
So I've got a bunch of compounds here, and I need their hemolysis at 1 h, 128 ug/ml values.
Give just the number in %; leave the unit off.

query: For the compound CCCCCCCCCCCC(=O)NCCC(NC(=O)CCCCCCCCCCC)C(=O)N[C@@H](CCCCN)C(=O)N[C@@H](CCCCN)C(=O)N[C@@H](CCCCN)C(N)=O (some centres not stated) (Lauroyl-[ξDab](Lauroyl)KKK-NH2) , give its measured hemolysis at 1 h, 128 ug/ml value.
result: 13

query: # return recorded hemolysis at 1 h, 128 ug/ml for entry CCCCCCCCCCCC(=O)NCC(NC(=O)CCCCCCCCCCC)C(=O)N[C@@H](CCCCN)C(=O)N[C@@H](CCCCN)C(=O)N[C@@H](CCCCN)C(N)=O (some centres not stated) (Lauroyl-[ξDap](Lauroyl)KKK-NH2)
result: 50
